Each entry below lists one item and its recorded Absorbance (450 nm) value.
target: recombinant human CD3ε/δ heterodimer (human) (UniProt P07766); assay: ELISA, coated CD3ε/δ
Sequence (P07766 23-126, stated change not applied, chain 1 of 2): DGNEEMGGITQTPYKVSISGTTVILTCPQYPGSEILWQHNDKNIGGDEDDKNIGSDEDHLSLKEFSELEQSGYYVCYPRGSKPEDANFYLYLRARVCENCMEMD
Sequence (P04234 22-105, stated change not applied, chain 2 of 2, further chain): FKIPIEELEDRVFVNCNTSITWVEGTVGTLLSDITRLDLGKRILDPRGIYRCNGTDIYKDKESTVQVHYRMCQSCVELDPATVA
Answer field: number only, no words.

{"binder": "E06 (antibody, human IgG1, lambda, L234A L235A, V domains shown) VH: EVQLVESGGGLVQPGGSLKLSCAASGFTFNTYAMNWVRQASGKGLEWVARIRSKYNNYATYYADSVKDRFTISRDDSKNTAYLQMNSLKTEDTAVYYCVRHGNFGNSYVSWFAYWGQGTLVTVSS VL: QAVVTQEPSLTVSPGGTVTLTCRSSTGAVTTSNYANWFQQKPGQAPRGLIYGTNKRAPWTPARFSGSLLGDKAALTLSGAQPEDEAEYYCALWYSNLWVFGGGTKLTVLG", "Absorbance (450 nm)": 0.112}

The binder F03 (antibody, human IgG1, lambda, L234A L235A, V domains shown) VH: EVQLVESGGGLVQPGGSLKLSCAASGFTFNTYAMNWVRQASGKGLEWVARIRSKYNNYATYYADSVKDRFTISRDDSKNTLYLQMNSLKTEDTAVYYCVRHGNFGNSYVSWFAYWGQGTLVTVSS VL: QAVVTQEPSLTVSPGGTVTLTCRSSTGAVTTSNYANWFQQKPGQAPRTLIGGTNKRAPWTPARFSGSLLGGKAALTLSGAQPEDEAEYYCALWYSNLWVFGGGTKLTVLG showed Absorbance (450 nm) equal to 0.128

Quick note, Absorbance (450 nm) for B01 (antibody, human IgG1, lambda, L234A L235A, V domains shown) VH: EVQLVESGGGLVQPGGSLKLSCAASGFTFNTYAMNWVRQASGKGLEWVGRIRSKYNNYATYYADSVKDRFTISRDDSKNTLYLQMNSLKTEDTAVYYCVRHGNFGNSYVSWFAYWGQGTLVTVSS VL: QAVVTQEPSLTVSPGGTVTLTCRSSTGAVTTSNYANWFQQKPGQAPRTLIYGTNKRAPWTPARFSGSLLGGKAALTLSGAQPEDEAEYYCALWYSNLWVFGGGTKLTVLG landed at 0.097
